Biological target: T1, human TIM-3 protein on human PBMC (human, UniProt Q8TDQ0 22-301)
T1 sequence: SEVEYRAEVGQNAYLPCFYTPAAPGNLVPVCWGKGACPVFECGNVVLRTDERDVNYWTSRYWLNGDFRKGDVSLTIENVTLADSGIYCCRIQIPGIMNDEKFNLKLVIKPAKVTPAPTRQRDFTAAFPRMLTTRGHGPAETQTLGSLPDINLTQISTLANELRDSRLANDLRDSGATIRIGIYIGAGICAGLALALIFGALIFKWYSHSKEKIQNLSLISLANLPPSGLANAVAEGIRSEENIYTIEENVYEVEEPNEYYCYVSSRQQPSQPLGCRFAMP
Experiment: cell-based or functional assay
reported.property: IFN-γ production, lymphocyte activation assay (donor Y), antibody 10 µg/ml, N = 2 (pg/mL)
The answer is to be given in pg/mL; state only the numeric part.

binder	observed
fully human TIM-3 antibody 39E5H1 (antibody, human IgG4, V domains shown, also called antibody number 6) VH: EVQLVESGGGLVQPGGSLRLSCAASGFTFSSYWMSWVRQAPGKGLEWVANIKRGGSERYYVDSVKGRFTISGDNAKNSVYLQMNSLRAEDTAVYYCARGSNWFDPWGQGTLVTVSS VL: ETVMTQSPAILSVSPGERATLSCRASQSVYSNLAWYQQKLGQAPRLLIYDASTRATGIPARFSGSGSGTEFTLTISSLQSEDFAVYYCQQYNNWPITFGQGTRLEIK	4120

Query string: Sample fully human TIM-3 antibody 7A4F10 (antibody, human IgG4, V domains shown, also called antibody number 1) VH: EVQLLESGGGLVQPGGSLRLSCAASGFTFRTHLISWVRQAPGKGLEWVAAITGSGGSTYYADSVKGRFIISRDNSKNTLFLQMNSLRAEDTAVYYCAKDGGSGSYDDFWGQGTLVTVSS VL: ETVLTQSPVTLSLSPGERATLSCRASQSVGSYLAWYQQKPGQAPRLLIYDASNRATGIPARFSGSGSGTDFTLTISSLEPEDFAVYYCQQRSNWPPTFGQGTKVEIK — what was its IFN-γ production, lymphocyte activation assay (donor Y), antibody 10 µg/ml, N = 2?
Result string: 3890

Query string: Now try fully human TIM-3 antibody 34B6D8 (antibody, human IgG4, V domains shown, also called antibody number 5) VH: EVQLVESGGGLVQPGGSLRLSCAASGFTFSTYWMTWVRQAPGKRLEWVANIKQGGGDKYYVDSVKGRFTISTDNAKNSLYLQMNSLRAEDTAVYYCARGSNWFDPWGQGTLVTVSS VL: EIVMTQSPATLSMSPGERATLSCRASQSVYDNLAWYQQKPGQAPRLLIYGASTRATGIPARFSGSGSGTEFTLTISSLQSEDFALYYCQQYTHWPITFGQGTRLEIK .
Result string: 3630
